Test system: HCC-15
Assay: relative viability (nuclei count vs DMSO), 5 days (fraction); higher = more cells survive
Details: first compound 1 µM
endpoint.name: relative viability
Just the number, please, no unit attached.

Specify measured relative viability for O=c1cc(N2CCOCC2)oc2c(-c3cccc4c3sc3ccccc34)cccc12 + O=C(CCCCCCC(=O)Nc1ccccc1)NO [Vorinostat] (partner 1 µM) . 0.847

Complete the entry with relative viability for O=c1cc(N2CCOCC2)oc2c(-c3cccc4c3sc3ccccc34)cccc12 + Nc1ncn([C@H]2C[C@H](O)[C@@H](CO)O2)c(=O)n1 [Decitabine] (partner 2 µM) 0.724

For the molecule CCN(CC)CCCCNc1ncc2cc(-c3cc(OC)cc(OC)c3)c(NC(=O)NC(C)(C)C)nc2n1 + O=C(CCCCCCC(=O)Nc1ccccc1)NO [Vorinostat] (partner 1 µM) , report relative viability. 0.836

Please give the documented relative viability of CCN(CC)CCCCNc1ncc2cc(-c3cc(OC)cc(OC)c3)c(NC(=O)NC(C)(C)C)nc2n1 + C[C@]1(O)C[C@@H](c2nc(-c3ccc4ccc(-c5ccccc5)nc4c3)c3c(N)nccn32)C1 [Linsitinib] (partner 1 µM) 0.872

Give reported relative viability value for CCN(CC)CCCCNc1ncc2cc(-c3cc(OC)cc(OC)c3)c(NC(=O)NC(C)(C)C)nc2n1 + N=C(N)NC(=N)NCCc1ccccc1 [Phenformin] (partner 250 µM) 0.424

----------
System: NCI-H661
Assay: relative viability (nuclei count vs DMSO), 5 days (fraction); higher = more cells survive
Conditions: first compound 6.325 µM
Binary label based on relative viability with cut-off 0.5: below gives condition met, not below gives condition not met.

Decide: relative viability of COCC1(CO)C(=O)C2CCN1CC2 (stereo not given) [PRIMA-1MET] + CC(=O)Nc1cccc(-n2c(=O)n(C3CC3)c(=O)c3c(Nc4ccc(I)cc4F)n(C)c(=O)c(C)c32)c1 [Trametinib] (partner 0.02 µM) strictly below 0.5? condition not met

Strictly below 0.5 in relative viability? COCC1(CO)C(=O)C2CCN1CC2 (stereo not given) [PRIMA-1MET] + N=C(N)NC(=N)NCCc1ccccc1 [Phenformin] (partner 250 µM) condition met

# TODO verify relative viability < 0.5 strictly for this compound: COCC1(CO)C(=O)C2CCN1CC2 (stereo not given) [PRIMA-1MET] + CC(=O)c1c(C)c2cnc(Nc3ccc(N4CCNCC4)cn3)nc2n(C2CCCC2)c1=O [Palbociclib] (partner 0.5 µM) condition met

hey, is relative viability for COCC1(CO)C(=O)C2CCN1CC2 (stereo not given) [PRIMA-1MET] + COc1cccc2cc(-c3nc([C@H]4CC[C@H](C(=O)O)CC4)n4ncnc(N)c34)[nH]c12 [OSI-027] (partner 0.5 µM) lower than 0.5 or not? condition not met

Answer whether the compound COCC1(CO)C(=O)C2CCN1CC2 (stereo not given) [PRIMA-1MET] + C[C@]1(O)C[C@@H](c2nc(-c3ccc4ccc(-c5ccccc5)nc4c3)c3c(N)nccn32)C1 [Linsitinib] (partner 1 µM) has relative viability strictly less than 0.5 condition not met

----------
Test system: NCI-H2170
Assay: relative viability (nuclei count vs DMSO), 5 days (fraction); higher = more cells survive
Conditions: first compound 0.03162 µM
Rule: relative viability below 0.4 gives class 1. Equal to or above 0.4 gives class 0.

hey, is relative viability for CCN(CC)CCCCNc1ncc2cc(-c3cc(OC)cc(OC)c3)c(NC(=O)NC(C)(C)C)nc2n1 + CC(=O)c1c(C)c2cnc(Nc3ccc(N4CCNCC4)cn3)nc2n(C2CCCC2)c1=O [Palbociclib] (partner 0.5 µM) lower than 0.4 or not? class 1

Lab note: confirm whether the reported relative viability for this molecule is below 0.4, equality not counting. molecule: CCN(CC)CCCCNc1ncc2cc(-c3cc(OC)cc(OC)c3)c(NC(=O)NC(C)(C)C)nc2n1 + O=C(c1cc(Cc2n[nH]c(=O)c3ccccc23)ccc1F)N1CCN(C(=O)C2CC2)CC1 [Olaparib] (partner 8 µM) class 0

# strict comparison: is reported relative viability < 0.4? input = CCN(CC)CCCCNc1ncc2cc(-c3cc(OC)cc(OC)c3)c(NC(=O)NC(C)(C)C)nc2n1 + NC(=O)Nc1cc(-c2cccc(F)c2)sc1C(=O)N[C@H]1CCCNC1 [AZD7762] (partner 0.2 µM) class 0

Bench note: check whether CCN(CC)CCCCNc1ncc2cc(-c3cc(OC)cc(OC)c3)c(NC(=O)NC(C)(C)C)nc2n1 + Cc1nc(Nc2ncc(C(=O)Nc3c(C)cccc3Cl)s2)cc(N2CCN(CCO)CC2)n1 [Dasatinib] (partner 0.075 µM) shows relative viability below 0.4 class 0

Answer whether the molecule O=c1cc(N2CCOCC2)oc2c(-c3cccc4c3sc3ccccc34)cccc12 + CC1(C)CCC(c2ccc(Cl)cc2)=C(CN2CCN(c3ccc(C(=O)NS(=O)(=O)c4ccc(N[C@H](CCN5CCOCC5)CSc5ccccc5)c(S(=O)(=O)C(F)(F)F)c4)cc3)CC2)C1 [Navitoclax] (partner 0.5 µM) has relative viability strictly less than 0.4 class 0

Lab log: compare recorded relative viability with 0.4; is it strictly lower for CCN(CC)CCCCNc1ncc2cc(-c3cc(OC)cc(OC)c3)c(NC(=O)NC(C)(C)C)nc2n1 + Nc1nc2[nH]cc(CCc3ccc(C(=O)N[C@@H](CCC(=O)O)C(=O)O)cc3)c2c(=O)[nH]1 [Pemetrexed] (partner 0.2 µM) ? class 1

Does the reported relative viability of the following molecule sit strictly below 0.4? O=c1cc(N2CCOCC2)oc2c(-c3cccc4c3sc3ccccc34)cccc12 + Cc1cc(Nc2cc(N3CCN(C)CC3)nc(Sc3ccc(NC(=O)C4CC4)cc3)n2)n[nH]1 [Tozasertib] (partner 0.1 µM) class 0

Criterion: relative viability strictly below 0.4. Is it met by O=c1cc(N2CCOCC2)oc2c(-c3cccc4c3sc3ccccc34)cccc12 + Nc1ncn([C@H]2C[C@H](O)[C@@H](CO)O2)c(=O)n1 [Decitabine] (partner 2 µM) ? class 0

----------
I'd be grateful if you could share measured relative viability for these entries.
Test system: NCI-H2342
Test: relative viability (nuclei count vs DMSO), 5 days (fraction); higher = more cells survive
Conditions: first compound 0.8 µM
Response field accepts a number only; no unit should be typed.

Please report relative viability for the following molecule: O=c1cc(-c2cccc3c2Sc2ccccc2S3)oc(N2CCOCC2)c1 + Cc1cc(Nc2cc(N3CCN(C)CC3)nc(Sc3ccc(NC(=O)C4CC4)cc3)n2)n[nH]1 [Tozasertib] (partner 0.1 µM) 0.472

Specify measured relative viability for O=c1cc(-c2cccc3c2Sc2ccccc2S3)oc(N2CCOCC2)c1 + COc1cccc2cc(-c3nc([C@H]4CC[C@H](C(=O)O)CC4)n4ncnc(N)c34)[nH]c12 [OSI-027] (partner 0.5 µM) . 0.545

Tell me relative viability reported for O=c1cc(-c2cccc3c2Sc2ccccc2S3)oc(N2CCOCC2)c1 + Nc1ncn([C@H]2C[C@H](O)[C@@H](CO)O2)c(=O)n1 [Decitabine] (partner 2 µM) 0.734

Tell me measured relative viability for O=c1cc(-c2cccc3c2Sc2ccccc2S3)oc(N2CCOCC2)c1 + CC(=O)Nc1cccc(-n2c(=O)n(C3CC3)c(=O)c3c(Nc4ccc(I)cc4F)n(C)c(=O)c(C)c32)c1 [Trametinib] (partner 0.02 µM) please. 0.736

----------
System: NCI-H2228
Test: relative viability (nuclei count vs DMSO), 5 days (fraction); higher = more cells survive
Details: first compound 0.2 µM
I'd be grateful if you could share measured relative viability for these entries.
# answer = number (no unit)

Specify relative viability for COCC1(CO)C(=O)C2CCN1CC2 (stereo not drawn) [PRIMA-1MET] + COc1cc2c(Oc3ccc(NC(=O)C4(C(=O)Nc5ccc(F)cc5)CC4)cc3F)ccnc2cc1OCCCN1CCOCC1 [Foretinib] (partner 0.25 µM) , system NCI-H2228. 0.973

Please indicate recorded relative viability of COCC1(CO)C(=O)C2CCN1CC2 (stereo not drawn) [PRIMA-1MET] + Cc1nc(Nc2ncc(C(=O)Nc3c(C)cccc3Cl)s2)cc(N2CCN(CCO)CC2)n1 [Dasatinib] (partner 0.075 µM) measured with NCI-H2228. 0.638

Report relative viability under test system NCI-H2228 for COCC1(CO)C(=O)C2CCN1CC2 (stereo not drawn) [PRIMA-1MET] + CC(C)C[C@H](NC(=O)[C@H](Cc1ccccc1)NC(=O)c1cnccn1)B(O)O [Bortezomib] (partner 0.002 µM) . 1.1

----------
System: NCI-H1623
Assay: relative viability (nuclei count vs DMSO), 5 days (fraction); higher = more cells survive
Settings: first compound 0.1 µM
Task for the reader: assign each of the following molecules its reported relative viability.
Give only the figure.

Return relative viability for the following molecule: CCN(CC)CCCCNc1ncc2cc(-c3cc(OC)cc(OC)c3)c(NC(=O)NC(C)(C)C)nc2n1 + COc1cc2c(Oc3ccc(NC(=O)C4(C(=O)Nc5ccc(F)cc5)CC4)cc3F)ccnc2cc1OCCCN1CCOCC1 [Foretinib] (partner 0.25 µM) 0.876

Output relative viability of CCN(CC)CCCCNc1ncc2cc(-c3cc(OC)cc(OC)c3)c(NC(=O)NC(C)(C)C)nc2n1 + Cc1nc(Nc2ncc(C(=O)Nc3c(C)cccc3Cl)s2)cc(N2CCN(CCO)CC2)n1 [Dasatinib] (partner 0.075 µM) 0.579
